Data provenance: patent US20250376535A1

target_or_system: T1, Human 41BB antigen (BLI) (human, UniProt Q07011 24-183)
T1 construct: also called 41BB protein
T1 sequence (Q07011 24-183 limits assumed): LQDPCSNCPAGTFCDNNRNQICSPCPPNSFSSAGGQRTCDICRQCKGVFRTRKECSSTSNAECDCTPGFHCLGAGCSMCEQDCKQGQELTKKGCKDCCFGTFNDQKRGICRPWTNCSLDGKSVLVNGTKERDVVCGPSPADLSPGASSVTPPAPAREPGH
assay_overview: BLI, VHH-His on anti-His tips, human 41BB in solution;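 note: association tracked for 200 s, after which dissociation was followed in 1×PBS free of 41BB protein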
Recorded kon for the following binders
Please state the figure in M⁻¹ s⁻¹; there is no need to write the unit.

Previously resolved entries follow.
>  <binder>
4-1BB-2 (VHH, not shown: small tags and cut ends) VHH: QVQLVESGGGLVQAGGSLRLSCAASGSIFSYNAMAWYRQAPGKQRELVALITSDRTTKYADSVKGRFTISRDDTKNTVDLEMNSLKPEDTAVYTCAALLNSARTSWGQGTQVTVSS

>  <quantity_unit>
M⁻¹ s⁻¹

>  <value_observed>
979000

$$$$
>  <binder>
4-1BB-56 (VHH, not shown: small tags and cut ends) VHH: QVQLVESGGGLVQTGGSLRLSCAASGRISTIDTMFWYRQTPGKERDWVAFIPKDGLPTYVDSVKGRFTVSRDNARNTVYLQMNGLKPEDTAVYYCAVDVQEDRMRTYWGQGTQVTVSS

>  <quantity_unit>
M⁻¹ s⁻¹

>  <value_observed>
707000

$$$$
>  <binder>
4-1BB-9 (VHH, not shown: small tags and cut ends) VHH: QVQLVESGGGLVQAGGSLRLSCAASGSIFSYNAVAWYRQAPGKQRELVAVITSGGETTKYADSVKGRFTISRDITKNAVDLQMVSLKPEDTAVYTCAALRNSGSTSWGQGTQVTVSS

>  <quantity_unit>
M⁻¹ s⁻¹

>  <value_observed>
606000

$$$$

Notebook: 4-1BB-36 (VHH, not shown: small tags and cut ends) VHH: EVQLVESGGGLVQPGGSLRLSCAASRRTFSSYTAGWFRQAPGKEREFVASIRWISGTTTYADSVNGRFTISRDIAKNTVYLQMNSLKPDDTAVYYCAVDLSSDNDYDYWGQGTQVTVSS , kon read as 314000
